// provenance: paper PMC11162469

Target: rat RXFP2 (Rattus norvegicus, UniProt F7EMH8)
Sequence (F7EMH8 20-737): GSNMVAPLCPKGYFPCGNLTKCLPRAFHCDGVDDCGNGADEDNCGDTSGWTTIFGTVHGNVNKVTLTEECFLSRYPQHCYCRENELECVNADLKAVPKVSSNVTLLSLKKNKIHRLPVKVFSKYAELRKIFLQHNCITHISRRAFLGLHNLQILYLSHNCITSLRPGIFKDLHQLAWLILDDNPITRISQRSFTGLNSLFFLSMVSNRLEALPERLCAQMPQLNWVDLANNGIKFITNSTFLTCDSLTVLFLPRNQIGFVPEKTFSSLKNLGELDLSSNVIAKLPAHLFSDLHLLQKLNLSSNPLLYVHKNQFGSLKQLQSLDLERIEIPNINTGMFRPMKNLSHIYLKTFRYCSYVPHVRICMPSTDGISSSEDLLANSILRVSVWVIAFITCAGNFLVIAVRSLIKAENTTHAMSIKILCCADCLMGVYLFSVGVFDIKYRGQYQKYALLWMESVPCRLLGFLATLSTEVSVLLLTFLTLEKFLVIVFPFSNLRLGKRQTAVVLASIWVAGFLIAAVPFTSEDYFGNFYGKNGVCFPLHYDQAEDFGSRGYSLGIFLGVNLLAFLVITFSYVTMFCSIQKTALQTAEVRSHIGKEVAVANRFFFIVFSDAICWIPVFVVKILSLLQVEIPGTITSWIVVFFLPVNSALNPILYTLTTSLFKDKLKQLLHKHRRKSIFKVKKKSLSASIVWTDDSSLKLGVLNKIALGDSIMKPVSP
Assay: INSL3-stimulated CYP11B1 mRNA expression in H295R stably expressing rat RXFP2
Assay type: cell-based
Set-up: expressed in transfected cells
Conditions: INSL3 EC80 (3.5 nM), 48 h, qPCR; N = 2
MEASURE NAME: pIC50
Reminder that pIC50 is minus the log10 of a molar concentration.

Completed entries (count: 3):
>>> observed_result("1F2: RXFP2 monoclonal antibody from hybridoma, recombinantly expressed in a rat IgG2b backbone (antibody, V domains shown) VH: QVQLKQSGPGLVQPSQSLSITCTVSGFSLTAYGVNWVRQSPGKGLEWLGVIWSGGNTDYNAPFISRLSITKDNSKSQVFFKMNSLEADDTAIYYCARAKGYYAMDYWGQGTSVTVSS VL: DIQMTQSPASLSVSVGESVTITCRATENIYSNLVWYQQKQGQSPQLLVYAVTSLADGVPSRFSGSGSGTQYSLKINSLQSEDFGTYYCQHFWGTPYTFGGGTKLEIK")
9.49
>>> observed_result("4H2: RXFP2 monoclonal antibody from hybridoma, recombinantly expressed in a rat IgG2b backbone (antibody, V domains shown) VH: QVQLRQSGPSLVQPSQSLSITCTVSGFSLTNYGVHWVRQSPGKGLEWLGVIWRGGNTDHNAAFMSRLSITKDNSESQVFFKMNSLQVDDTAIYYCAKAEGYYALDYWGQGTSVTVYS VL: DIQMTQSPASLSVSVGETVTITCRASENIYSNLAWYQQKQGKSPQLLVYAVTNLADGVPSRFSGSGSGTQYSLKINSLQSEDFGSYYCQHFWGTPWTFGGGTKLEIK")
9.59
>>> observed_result("1G1: RXFP2 monoclonal antibody from hybridoma, recombinantly expressed in a rat IgG2b backbone (antibody, V domains shown) VH: EVQLQQSGPELVKPGASVKMSCKASGYTFTDYNMHWVKQKPGQGLEWIGYINPYNDGTEYNEKFKGKATLTSDKSSSTAYMDLSSLTSEDSAVYYCARGLWFAMNYWGQGTSVTVSS VL: DIQMTQSSSSFSVSLGDRVTITCKASEDIYNRLAWYQQKPGNTPRLLISGATILETGVPSRFSGSGSGKDYTLSIISLQTEDVATYYCQQYWIIPPTFGGGTKLEIK")
9.57

INPUT: Endpoint output: pIC50 of 3H1: RXFP2 monoclonal antibody from hybridoma, recombinantly expressed in a rat IgG2b backbone (antibody, V domains shown) VH: QVQLKETGPGLVAPSQSLSITCTVSGFSLTNYGVNWVRQPPGKGLEWLVVIWSDGSTNYNSALKSRLSISKDNSKSQVFLKMNSLQTDDTAMYYCARQQGYYAMDYWGQGTSVIVSS VL: DIQMTQSPASLSVSVGETVTITCRASENIYSNLAWYQQKQGKSPQLLVYAVTNLADGVPSRFSGSGSGTQYSLKINSLQSEDFGSYYCQHFWGPPYTFGGGTKLEIK . Value?
OUTPUT: 9.48
